Assay: Clearance in cynomolgus monkey at 1 mg/kg, iv
Assay type: ADME, organism-based, Macaca fascicularis
Conditions: in vivo
parameter measured: clearance
# answer = value followed by unit

response.value for CCc1nc(-c2ccc3c(c2)CC[C@H]3NC(=O)c2cnn(C)c2)no1 (field: clearance) = 11.2 mL/min/kg

----------
Experiment: Inhibition of full-length myosin ATPase activity in bovine cardiac myofibrils
Format: subcellular, Bos taurus, Heart
Catalogue of compounds with associated IC50
The figure you give is taken to be in µM; do not add the unit.

Cn1cc(C(=O)N[C@@H]2CCc3cc(-c4noc(C5CC5)n4)ccc32)cn1: 2.7

Looking up Cc1nc(-c2ccc3c(c2)CCC3NC(=O)c2oncc2C)no1 (racemic) , I see its IC50 listed as 2.5

Entry under test: CC(C)c1nc(-c2ccc3c(c2)CC[C@H]3NC(=O)c2cnn(C)c2)no1 . Its IC50 was 4.1

Noted for CCc1nc(-c2ccc3c(c2)CCN3C(=O)Cc2ccccc2)no1 : its IC50 reads 19.1

Given item CCc1nc(-c2ccc3c(c2)CCN3C(=O)COc2ccccc2)no1 , the value recorded as its IC50 is 2.7

Value of measured IC50 for the entry Cn1cc(C(=O)N[C@@H]2CCc3cc(-c4noc(C5CCC5)n4)ccc32)cn1 : 3.2

Given item Cc1cc(C(=O)N[C@@H]2CCc3cc(-c4noc(C(C)C)n4)ccc32)ccn1 , the value recorded as its IC50 is 2.7

----------
Assay: Cmax in mouse at 1 mg/kg, po
Assay type: ADME, organism-based
Parameters: route oral, dose 1 mg/kg
Settings: in vivo
parameter measured: Cmax (ng/mL)
Kindly provide the numeric value in ng/mL only, without the unit symbol.

Entry CCc1nc(-c2ccc3c(c2)CC[C@H]3NC(=O)c2cnn(C)c2)no1 , Cmax reported as 268

----------
Assay: Half life in Sprague-Dawley rat at 8 mg/kg, po
Assay type: ADME, organism-based
Conditions: in vivo
parameter measured: half-life (h)
Kindly answer with a numeric value in h, unit omitted.

half-life in this record for CCc1nc(-c2ccc3c(c2)CC[C@H]3NC(=O)c2cnn(C)c2)no1 [AFICAMTEN] : 3.3

----------
Experiment: Cmax in Sprague-Dawley rat at 2 mg/kg, po
Format: ADME, organism-based
Design: route oral, dose 2 mg/kg
Conditions: in vivo
parameter measured: Cmax (ng/mL)
Write the answer as a number in ng/mL, unit excluded.

So for CCc1nc(-c2ccc3c(c2)CC[C@H]3NC(=O)c2cnn(C)c2)no1 , the logged Cmax turned out to be 1650

----------
Experiment: Clearance in Beagle dog at 1 mg/kg, iv
Type: ADME, organism-based, Canis lupus familiaris
Conditions: in vivo
parameter measured: clearance (mL/min/kg)
Give the value, in units of mL/min/kg, as a plain number.

Looking up CCc1nc(-c2ccc3c(c2)CC[C@H]3NC(=O)c2cnn(C)c2)no1 , I found its clearance recorded as 3.3

----------
Test: Cmax in Sprague-Dawley rat at 3 mg/kg, po
Format: ADME, organism-based
Set-up: route oral, dose 3 mg/kg
Conditions: in vivo
parameter measured: Cmax (ng/mL)
Number in ng/mL, nothing else.

Measured Cmax, CCc1nc(-c2ccc3c(c2)CC[C@H]3NC(=O)c2cnn(C)c2)no1 : 3170

----------
Assay: Cmax in Beagle dog at 1 mg/kg, po
Format: ADME, organism-based, Canis lupus familiaris
Design: route oral, dose 1 mg/kg
Details: in vivo
parameter measured: Cmax (ng/mL)
Answer with a number only, understood to be in ng/mL.

Per the records, this compound ( CCc1nc(-c2ccc3c(c2)CC[C@H]3NC(=O)c2cnn(C)c2)no1 ) has Cmax equal to 245
